Biological target: OsSMF1 (Oryza sativa, UniProt Q6ZLB0 1-436)
Sequence: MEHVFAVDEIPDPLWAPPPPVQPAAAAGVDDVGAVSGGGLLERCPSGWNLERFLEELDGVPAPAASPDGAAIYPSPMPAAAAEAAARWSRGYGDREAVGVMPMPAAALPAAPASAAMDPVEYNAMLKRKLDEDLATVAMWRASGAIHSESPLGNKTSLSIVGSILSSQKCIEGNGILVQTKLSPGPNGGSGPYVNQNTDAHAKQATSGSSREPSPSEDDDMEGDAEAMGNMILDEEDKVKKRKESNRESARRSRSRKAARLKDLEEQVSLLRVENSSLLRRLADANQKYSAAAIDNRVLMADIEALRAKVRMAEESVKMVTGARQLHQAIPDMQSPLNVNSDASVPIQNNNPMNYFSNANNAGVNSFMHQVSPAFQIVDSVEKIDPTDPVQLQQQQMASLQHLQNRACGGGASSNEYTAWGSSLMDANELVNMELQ
Experiment: protein-binding microarray (RPBM); PBS, 2% BSA, 51.3 ng/ul salmon testes DNA, 50 uM zinc acetate, 200 nM TF, 25 C, 1 h; high values mean tight binding
Details: protein: recombinant; tags: N-terminal polyhistidine and DsRed monomer fusion (pET32a); chain copies: 2; label: CyDye5-dUTP incorporated in the synthesized complementary strand; 3' TTTTT single-stranded linker to array surface; dsDNA, one strand shown
In all, about 39,000 sequences were measured (“fluorescence intensity (a.u.)”: median about 4,300, highest 2% from about 39,000 on). The sample holds the highest values, similar sequences and a random draw of the others, so the mix is not that of the screen.
measure: binding signal

| seq text | study system | assay value |
| --- | --- | --- |
| TTTTGCACACATGTATCATGCTGACGTCAGCATGACGTGGCGGAGTCACCTAGTGCAG | OsSMF1 (Oryza sativa, UniProt Q6ZLB0 1-436) | 61200 fluorescence intensity (a.u.) |
| ACAATACTACTATTTTATCATGACGATGACTGGAACTCCACGGAGTCACCTAGTGCAG | OsSMF1 (Oryza sativa, UniProt Q6ZLB0 1-436) | 4440 fluorescence intensity (a.u.) |
| ATTTAATAACTTCTATGGACAATATGTGCCCTGAAACTACCGGAGTCACCTAGTGCAG | OsSMF1 (Oryza sativa, UniProt Q6ZLB0 1-436) | 48800 fluorescence intensity (a.u.) |
| GTTGACCGTCTACGTGGCATTCCACGTAGGCAGCTCATTTCGGAGTCACCTAGTGCAG | OsSMF1 (Oryza sativa, UniProt Q6ZLB0 1-436) | 16600 fluorescence intensity (a.u.) |
| GCTGGTAAAGCGGTGCGCCGGTGCCGCCACGTCCTCGCACCGGAGTCACCTAGTGCAG | OsSMF1 (Oryza sativa, UniProt Q6ZLB0 1-436) | 15100 fluorescence intensity (a.u.) |
| GACGCGTACGCACGGTGGGACGCGGTGGTGGGGTGCTGGGCGGAGTCACCTAGTGCAG | OsSMF1 (Oryza sativa, UniProt Q6ZLB0 1-436) | 3920 fluorescence intensity (a.u.) |
| CATCCGTCGCTTCGCTTTCGTTCGAACGCGTTGGACCCAGCGGAGTCACCTAGTGCAG | OsSMF1 (Oryza sativa, UniProt Q6ZLB0 1-436) | 3160 fluorescence intensity (a.u.) |
| TTCTACTATGTCATTCTAGTACTATATAAAACTACTATGCCGGAGTCACCTAGTGCAG | OsSMF1 (Oryza sativa, UniProt Q6ZLB0 1-436) | 3690 fluorescence intensity (a.u.) |
| GATTTTATTCGACGTGTCAGCTGACTCAGATGGTCGGTAGCGGAGTCACCTAGTGCAG | OsSMF1 (Oryza sativa, UniProt Q6ZLB0 1-436) | 39100 fluorescence intensity (a.u.) |
| ACTCCGGTTTTATCCGACGTGGCAGCTGACTCAGCATGGGCGGAGTCACCTAGTGCAG | OsSMF1 (Oryza sativa, UniProt Q6ZLB0 1-436) | 44300 fluorescence intensity (a.u.) |
| AGCTAGAACGCACAGACTTTAGGCTTTAGGTACGATGATGCGGAGTCACCTAGTGCAG | OsSMF1 (Oryza sativa, UniProt Q6ZLB0 1-436) | 43300 fluorescence intensity (a.u.) |
| CATTATACATGTGTCATGTGTATTCGACTTCTGTGCTGCCCGGAGTCACCTAGTGCAG | OsSMF1 (Oryza sativa, UniProt Q6ZLB0 1-436) | 4750 fluorescence intensity (a.u.) |
| CACTAGCTTGTTATATTTACGTGGCACACTTTGATGAGTACGGAGTCACCTAGTGCAG | OsSMF1 (Oryza sativa, UniProt Q6ZLB0 1-436) | 11500 fluorescence intensity (a.u.) |
| ATATGGCATACATGAGAATTTAGAGAATTTACCATCAAATCGGAGTCACCTAGTGCAG | OsSMF1 (Oryza sativa, UniProt Q6ZLB0 1-436) | 45500 fluorescence intensity (a.u.) |
| CGCGCGTCTCGACTCCGTCCCAATCGATCGATCGATCGCGCGGAGTCACCTAGTGCAG | OsSMF1 (Oryza sativa, UniProt Q6ZLB0 1-436) | 12800 fluorescence intensity (a.u.) |
| GAGGAGGAGGAGGCTGATGTGGCAGCCTGACATGTGGGGCCGGAGTCACCTAGTGCAG | OsSMF1 (Oryza sativa, UniProt Q6ZLB0 1-436) | 7020 fluorescence intensity (a.u.) |
| TGTGTCATGGCTGATGTCAGCTCAGCATATATATATTCAGCGGAGTCACCTAGTGCAG | OsSMF1 (Oryza sativa, UniProt Q6ZLB0 1-436) | 14900 fluorescence intensity (a.u.) |
| AAAGTTTCATGCCTGAGATGTTATGTTACGTGTCTATCCACGGAGTCACCTAGTGCAG | OsSMF1 (Oryza sativa, UniProt Q6ZLB0 1-436) | 7680 fluorescence intensity (a.u.) |
| TACCACTATCGGAAGTTTTGGTTGTGACGTCCACAATTCCCGGAGTCACCTAGTGCAG | OsSMF1 (Oryza sativa, UniProt Q6ZLB0 1-436) | 3760 fluorescence intensity (a.u.) |
| TTGGGAGGGAGAGTGGTAAAGGGTGCTGGGGCTTTGGCTGCGGAGTCACCTAGTGCAG | OsSMF1 (Oryza sativa, UniProt Q6ZLB0 1-436) | 4250 fluorescence intensity (a.u.) |
| GAACTACTAAACGGTACGTCTTTTCGTTTAAAAGAATATCCGGAGTCACCTAGTGCAG | OsSMF1 (Oryza sativa, UniProt Q6ZLB0 1-436) | 39400 fluorescence intensity (a.u.) |
| ACACTACCAATAGCTGGTACTTATTCAGCACAATAAGCTACGGAGTCACCTAGTGCAG | OsSMF1 (Oryza sativa, UniProt Q6ZLB0 1-436) | 46400 fluorescence intensity (a.u.) |
| ATTCACTGGAGGTGGTGCATCAGCATCACCAAAGCTAGCACGGAGTCACCTAGTGCAG | OsSMF1 (Oryza sativa, UniProt Q6ZLB0 1-436) | 3970 fluorescence intensity (a.u.) |
| GAGGACATGCATGTGCAAGGGGAGCAGGTGGGGTAAAATGCGGAGTCACCTAGTGCAG | OsSMF1 (Oryza sativa, UniProt Q6ZLB0 1-436) | 45500 fluorescence intensity (a.u.) |
| TCCAAGCCGTCCACTCCCCTCCGATCCAACGGTCCAAACCCGGAGTCACCTAGTGCAG | OsSMF1 (Oryza sativa, UniProt Q6ZLB0 1-436) | 21800 fluorescence intensity (a.u.) |
| ATCCGGTTTTATCCGACGTGGCGGCTGAGTCGGCGCGGGACGGAGTCACCTAGTGCAG | OsSMF1 (Oryza sativa, UniProt Q6ZLB0 1-436) | 30700 fluorescence intensity (a.u.) |
| CATTCCCTCCTCCTCCTCCTCCTCCTCCTGAATCCCTCCTCGGAGTCACCTAGTGCAG | OsSMF1 (Oryza sativa, UniProt Q6ZLB0 1-436) | 3380 fluorescence intensity (a.u.) |
| AGGAGGGGTGGAGCTGGAGCTGGAGCTGTGCCAAACAGGCCGGAGTCACCTAGTGCAG | OsSMF1 (Oryza sativa, UniProt Q6ZLB0 1-436) | 3190 fluorescence intensity (a.u.) |
| GTGCGGATGGGGAGGTGTGGTGGAAGGGTGGACAGTGGAGCGGAGTCACCTAGTGCAG | OsSMF1 (Oryza sativa, UniProt Q6ZLB0 1-436) | 3410 fluorescence intensity (a.u.) |
| CGCAGCCCGAGCCCGCCGTATTCCACGTCGACGCTGTCGTCGGAGTCACCTAGTGCAG | OsSMF1 (Oryza sativa, UniProt Q6ZLB0 1-436) | 5720 fluorescence intensity (a.u.) |
| TATATAAGAGACCTCACCTCCAAGAATCTCCAGAGAGAGACGGAGTCACCTAGTGCAG | OsSMF1 (Oryza sativa, UniProt Q6ZLB0 1-436) | 22900 fluorescence intensity (a.u.) |
| CCCCACCGACGGCGTGCAAAGCGGCCACCCAGCTCGACGCCGGAGTCACCTAGTGCAG | OsSMF1 (Oryza sativa, UniProt Q6ZLB0 1-436) | 8120 fluorescence intensity (a.u.) |
| TCAGAGAGCTGACAGCGTGTTCAGGCCGTTCGATTTTGGTCGGAGTCACCTAGTGCAG | OsSMF1 (Oryza sativa, UniProt Q6ZLB0 1-436) | 5030 fluorescence intensity (a.u.) |
| CTCCAGGAGGGGTGGAGTTGGAGCTGGAGCTGTGACAAACCGGAGTCACCTAGTGCAG | OsSMF1 (Oryza sativa, UniProt Q6ZLB0 1-436) | 12800 fluorescence intensity (a.u.) |
| GCATATGGGGCATATATACGTACATGACTGAATCATCGTTCGGAGTCACCTAGTGCAG | OsSMF1 (Oryza sativa, UniProt Q6ZLB0 1-436) | 3250 fluorescence intensity (a.u.) |
| ACCTACTAATAACTAGTTAATTGTCTATTGTGCCCCTAGTCGGAGTCACCTAGTGCAG | OsSMF1 (Oryza sativa, UniProt Q6ZLB0 1-436) | 13700 fluorescence intensity (a.u.) |
| TGAGAGAGAATTGCATTTTATGACATGCCCATATGATGATCGGAGTCACCTAGTGCAG | OsSMF1 (Oryza sativa, UniProt Q6ZLB0 1-436) | 17600 fluorescence intensity (a.u.) |
